Test system: Lucilia cuprina larvae
test-name: Blowfly larvae test/Development-inhibitory action
Format: in vivo
condition-parameters: 100 ppm; mortality of the larvae after 48 hours
measured-parameter: Action in % after 48 hours (%)
Enter your answer as a number in %; do not include the unit.

Entry O=S(=O)(Oc1ccc(C2CCC(c3c(F)cccc3F)=N2)cc1)C(F)(F)F (centres unmarked) has what Action in % after 48 hours?
100

Entry O=S(=O)(Oc1ccc(-c2ccc(C3CCC(c4c(F)cccc4F)=N3)cc2)cc1)C(F)(F)F (centres unmarked) has what Action in % after 48 hours?
100

Entry O=S(=O)(Oc1ccc([C@H]2CCC(c3c(F)cccc3F)=N2)cc1)C(F)(F)F has what Action in % after 48 hours?
100

Entry O=S(=O)(Oc1ccc(-c2ccc([C@H]3CCC(c4c(F)cccc4F)=N3)cc2)cc1)C(F)(F)F has what Action in % after 48 hours?
100

Entry O=S(=O)(Oc1ccc(C2CCC(c3c(F)cccc3F)=N2)cc1)c1ccc(OC(F)(F)F)cc1 (centres unmarked) has what Action in % after 48 hours?
90
